Cited source for all entries: ChEMBL document CHEMBL1154739

Record set of pIC50 for target or system Acetylcholinesterase (Rattus norvegicus).
pIC50: −log10 of the molar value.
Measurement Kind: pIC50

| Smiles Input | Assay Result |
| --- | --- |
| C[C@H]1Cc2nc3ccccc3c(N)c2C1 | 7.21 |
| CC(C)[C@H]1CC[C@H](C(C)C)c2c1nc1ccccc1c2N | 5.14 |
| C[C@H]1CC(=O)C(C)(C)c2nc3ccccc3c(N)c2C1 | 6.54 |
| CC(C)[C@@H]1Cc2nc3ccccc3c(N)c2C1 | 5.61 |
| C[C@H]1CC[C@H](C(C)(C)C)c2nc3ccccc3c(N)c21 | 5.87 |
| C[C@@H]1CCc2c(nc3ccccc3c2N)C1 | 5.86 |
| CC1(C)[C@H]2Cc3c(nc4ccccc4c3N)[C@@H]1C2 | 5.71 |
| C[C@@H]1c2c(nc3ccccc3c2N)[C@H]2C[C@@H]1C2(C)C | 5.58 |
| CC(C)[C@H]1CCc2c(nc3ccccc3c2N)C1 | 6.09 |
